Origin of measurements: patent US7842808B2

Assignment: determine reported pIC50 for the given compounds.
Molecular target: CGRP receptor (SK-N-MC cell membranes) (Homo sapiens, UniProt O60894+Q16602)
Construct: endogenous in cells; host or cells: SK-N-MC cells (membrane homogenate)
Sequence (Q16602 23-461): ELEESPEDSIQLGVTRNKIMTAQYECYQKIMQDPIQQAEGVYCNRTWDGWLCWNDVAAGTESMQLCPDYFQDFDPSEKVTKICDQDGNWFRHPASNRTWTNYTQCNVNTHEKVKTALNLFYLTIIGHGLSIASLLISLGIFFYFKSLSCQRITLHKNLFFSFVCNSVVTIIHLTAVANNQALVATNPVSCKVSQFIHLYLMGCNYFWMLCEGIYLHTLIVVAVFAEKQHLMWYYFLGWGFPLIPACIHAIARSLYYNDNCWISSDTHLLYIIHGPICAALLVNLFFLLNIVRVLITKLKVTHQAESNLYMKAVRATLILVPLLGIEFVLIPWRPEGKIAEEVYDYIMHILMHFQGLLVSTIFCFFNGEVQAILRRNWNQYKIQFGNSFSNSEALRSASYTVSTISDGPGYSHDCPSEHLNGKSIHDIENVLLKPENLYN
Sequence (O60894 27-148): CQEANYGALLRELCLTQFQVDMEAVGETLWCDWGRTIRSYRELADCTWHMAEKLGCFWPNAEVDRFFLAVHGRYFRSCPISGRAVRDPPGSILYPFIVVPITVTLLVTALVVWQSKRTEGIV
Assay: CGRP Binding Assay ([125I]-CGRP radioligand binding, SK-N-MC homogenate)
Details: displacement of [125I]-CGRP, SK-N-MC homogenate; read-out: CGRP binding IC50
Experimental: Tissue Culture. SK-N-MC cells were grown at 37° C. in 5% CO2 as a monolayer in medium consisting of MEM with Earle's salts and L-glutamine (Gibco) supplemented with 10% fetal bovine serum (Gibco). Cell Pellets. […] The cells were transferred from plates to polypropylene tubes (16×100 mm) and homogenized using a polytron. Homogenates were centrifuged at 32,000×g for 30 min. […] Radioligand Binding Assay. […] Protein bound radioactivity was determined using a gamma or scintillation counter.
pIC50: −log10 of the molar value.

Please give the documented pIC50 of `O=C(Nc1ccccc1F)N[C@@H](CC(=O)N1CCC(N2Cc3ccccc3NC2=O)CC1)C(=O)N1CCC(N2CCCCC2)CC1`
7.00 to 8.00

Please give the documented pIC50 of CCCCCCCN1CCN(C(=O)C(Cc2ccc3[nH]ncc3c2)NC(=O)N2CCC(N3Cc4ccccc4NC3=O)CC2)CC1 (stereo not shown) [Example 40b]
7.00 to 8.00

Please give the documented pIC50 of CC(C)CN1CCN(C(=O)C(Cc2ccc3[nH]ncc3c2)NC(=O)N2CCC(n3c(=O)[nH]c4ccccc43)CC2)CC1 (racemic)
7.00 to 8.00

Please give the documented pIC50 of `Cc1ccc(NC(=O)N[C@@H](CC(=O)N2CCC(N3Cc4ccccc4NC3=O)CC2)C(=O)N2CCC(N3CCCCC3)CC2)c(C)c1`
6.00 to 7.00

Please give the documented pIC50 of CN(C)C(=O)C(CC(=O)N1CCC(N2Cc3ccccc3NC2=O)CC1)Cc1ccc2[nH]ncc2c1 (racemic)
7.00 to 8.00

Please give the documented pIC50 of Cc1cc(CC(NC(=O)N2CCC3(CC2)CC(=O)Nc2ccccc23)C(=O)N2CCC(N3CCCCC3)CC2)cc2cn[nH]c12 (racemic)
> 8.00

Please give the documented pIC50 of `CC(C)(C)OC(=O)N[C@@H](CC(=O)N1CCC(N2Cc3ccccc3NC2=O)CC1)C(=O)N1CCC(N2CCCCC2)CC1`
6.00 to 7.00

Please give the documented pIC50 of `Cc1ccccc1NC(=O)N[C@@H](CC(=O)N1CCC(N2Cc3ccccc3NC2=O)CC1)C(=O)N1CCC(N2CCCCC2)CC1`
6.00 to 7.00

Please give the documented pIC50 of `O=C(C[C@H](Nc1cc(Cl)ccc1[N+](=O)[O-])C(=O)N1CCC(N2CCCCC2)CC1)N1CCC(N2Cc3ccccc3NC2=O)CC1`
7.00 to 8.00

Please give the documented pIC50 of O=C(NC(Cc1ccc(=O)[nH]c1)C(=O)N1CCC(N2CCCCC2)CC1)N1CCC(N2Cc3ccccc3NC2=O)CC1 (racemic)
6.00 to 7.00

Please give the documented pIC50 of `O=C(OCc1ccccc1C(=O)N[C@@H](CC(=O)N1CCC(N2Cc3ccccc3NC2=O)CC1)C(=O)N1CCC(N2CCCCC2)CC1)c1ccccc1`
6.00 to 7.00

Please give the documented pIC50 of O=C(NC(Cc1ccc2[nH]ncc2c1)C(=O)N1CCN(Cc2ccc[nH]2)CC1)N1CCC(N2Cc3ccccc3NC2=O)CC1 (stereo not shown) [Example 40g]
< 6.00

Please give the documented pIC50 of `O=C(Cc1ccc(Cl)cc1)N[C@@H](CC(=O)N1CCC(N2Cc3ccccc3NC2=O)CC1)C(=O)N1CCC(N2CCCCC2)CC1`
6.00 to 7.00

Please give the documented pIC50 of `O=C(Nc1cccc(F)c1)N[C@@H](CC(=O)N1CCC(N2Cc3ccccc3NC2=O)CC1)C(=O)N1CCC(N2CCCCC2)CC1`
7.00 to 8.00

Please give the documented pIC50 of Cc1cc(CC(CC(=O)N2CCC(N3Cc4ccccc4NC3=O)CC2)C(=O)N2CC(C)OC(C)C2)cc2cn[nH]c12 (racemic)
7.00 to 8.00

Please give the documented pIC50 of `Cc1cc(C)c(NC(=O)N[C@@H](CC(=O)N2CCC(N3Cc4ccccc4NC3=O)CC2)C(=O)N2CCC(N3CCCCC3)CC2)cc1C`
6.00 to 7.00

Please give the documented pIC50 of O=C(NC(CN1CCc2[nH]ncc2C1)C(=O)N1CCC(N2CCCCC2)CC1)N1CCC(N2Cc3ccccc3NC2=O)CC1 (racemic)
7.00 to 8.00

Please give the documented pIC50 of Cc1cc(CC(NC(=O)N2CCC(N3Cc4ccccc4NC3=O)CC2)C(=O)N2CCN(c3ccncc3)CC2)cc2cn[nH]c12 (racemic)
> 8.00

Please give the documented pIC50 of O=C1Nc2ccccc2C2(CCN(C(=O)CC(Cc3ccc4[nH]ncc4c3)C(=O)N3CCC(N4CCCCC4)CC3)CC2)O1 (racemic)
7.00 to 8.00

Please give the documented pIC50 of Cc1cc(CC(NC(=O)N2CCC3(CC2)OC(=O)Nc2ccccc23)C(=O)NC2C3CC4CC(C3)CC2C4)cc2cn[nH]c12 (racemic)
6.00 to 7.00

Please give the documented pIC50 of COC(=O)C(CN1Cc2cn[nH]c2C(C)(C)C1)NC(=O)N1CCC(N2Cc3ccccc3NC2=O)CC1 (racemic)
6.00 to 7.00

Please give the documented pIC50 of Cc1cc(CC(NC(=O)N2CCC(N3Cc4ccccc4NC3=O)CC2)C(=O)N(C)C)cc2cn[nH]c12 (racemic)
> 8.00

Please give the documented pIC50 of `O=C(Nc1ccc(Cl)cc1)N[C@@H](CC(=O)N1CCC(N2Cc3ccccc3NC2=O)CC1)C(=O)N1CCC(N2CCCCC2)CC1`
7.00 to 8.00

Please give the documented pIC50 of CC(C)CN1CCN(C(=O)C(Cc2ccc3[nH]ccc3c2)NC(=O)N2CCC(n3c(=O)[nH]c4ccccc43)CC2)CC1 (racemic)
6.00 to 7.00

Please give the documented pIC50 of `COC(=O)[C@@H](Cc1ccc2[nH]nnc2c1)NC(=O)N1CCC(N2Cc3ccccc3NC2=O)CC1`
< 6.00

====

Biological target: human CGRP receptor (SK-N-MC cells) (Homo sapiens, UniProt O60894+Q16602)
Construct: SK-N-MC cells that endogenously express the human CGRP receptor; endogenous in cells; host or cells: SK-N-MC cells
Sequence (Q16602 23-461): as the sequence (Q16602 23-461) above
Sequence (O60894 27-148): as the sequence (O60894 27-148) above
Assay: Schild analysis of CGRP stimulated cAMP production
Assay type: cell-based
Details: Schild plot slope
Protocol: Functional Antagonism. Antagonism of the compounds of invention was determined by measuring the formation of cyclic AMP (adenosine 3′5′-cyclic monophosphate) in SK-N-MC cells that endogenously express the human CGRP receptor. […] Cyclic AMP was extracted using the lysis reagent and its concentration was determined by radioimmunoassay using RPA559 cAMP SPA Direct Screening Assay Kit (Amersham Pharmacia Biotech). IC50 values were calculated using Excel fit. […]
Assignment: determine reported slope for the given compounds.
Respond numerically, and do not add a unit to the figure.

Please give the documented slope of Cc1cc(CC(NC(=O)N2CCC(N3Cc4ccccc4NC3=O)CC2)C(=O)N(C)C)cc2cn[nH]c12 (racemic)
0.8

Please give the documented slope of O=C(NC(Cc1ccc2[nH]ccc2c1)C(=O)N1CCC(N2CCCCC2)CC1)N1CCC(N2Cc3ccccc3NC2=O)CC1 (racemic)
0.92

Please give the documented slope of `O=C(N[C@H](Cc1ccc2[nH]c(=O)oc2c1)C(=O)N1CCC(N2CCCCC2)CC1)N1CCC(N2Cc3ccccc3NC2=O)CC1`
0.93

Please give the documented slope of Cc1cc(CC(CC(=O)N2CCC3(CC2)OC(=O)Nc2ccccc23)C(=O)N2CCC3(CC2)OCCO3)cc2cn[nH]c12 (racemic)
0.87

Please give the documented slope of Cc1cc(CC(NC(=O)N2CCC(N3Cc4ccccc4NC3=O)CC2)C(=O)N2CCN(c3ccncc3)CC2)cc2cn[nH]c12 (racemic)
0.89

Please give the documented slope of O=C(NC(Cc1ccc2[nH]ccc2c1)C(=O)N1CCC(N2CCCCC2)CC1)N1CCC(n2c(=O)[nH]c3ccccc32)CC1 (racemic)
0.96

====

molecular target: human CGRP receptor (SK-N-MC cells) (Homo sapiens, UniProt O60894+Q16602); construct: SK-N-MC cells that endogenously express the human CGRP receptor; endogenous in cells; host or cells: SK-N-MC cells; assay: Cyclic AMP Assay, functional antagonism of CGRP-induced cyclic AMP formation; assay type: cell-based; details: SK-N-MC cells, 0.3 nM CGRP; read-out: cAMP Function IC50
Assignment: determine reported IC50 for the given compounds.

Answer briefly: IC50 recorded on human CGRP receptor (SK-N-MC cells) (Homo sapiens, UniProt O60894+Q16602) for Cc1cc(CC(NC(=O)N2CCC3(CC2)OC(=O)Nc2ccccc23)C(=O)N2CCC(N3CCCCC3)CC2)cc2cn[nH]c12 (racemic) [Example 25]
< 10 nM

Answer briefly: IC50 recorded on human CGRP receptor (SK-N-MC cells) (Homo sapiens, UniProt O60894+Q16602) for CCC(C)CN1CCN(C(=O)C(Cc2ccc3[nH]ncc3c2)NC(=O)N2CCC(N3Cc4ccccc4NC3=O)CC2)CC1 (stereo not drawn) [Example 40a]
< 10 nM

Answer briefly: IC50 recorded on human CGRP receptor (SK-N-MC cells) (Homo sapiens, UniProt O60894+Q16602) for Cc1cc(CC(NC(=O)N2CCC3(CC2)CC(=O)Nc2ccccc23)C(=O)N2CCC(N3CCCCC3)CC2)cc2cn[nH]c12 (racemic) [Example 31]
< 10 nM

Answer briefly: IC50 recorded on human CGRP receptor (SK-N-MC cells) (Homo sapiens, UniProt O60894+Q16602) for O=C(N[C@H](Cc1csc2ccccc12)C(=O)N1CCC(N2CCCCC2)CC1)N1CCC2(CC1)Cc1ccccc1NC2=O [Example 61]
100 to 1000 nM

Answer briefly: IC50 recorded on human CGRP receptor (SK-N-MC cells) (Homo sapiens, UniProt O60894+Q16602) for O=C(NC(Cc1ccc2[nH]ncc2c1)C(=O)N1CCN(C(=O)OCc2ccccc2)CC1)N1CCC(N2Cc3ccccc3NC2=O)CC1 (stereo not drawn) [Example 38]
10 to 100 nM

Answer briefly: IC50 recorded on human CGRP receptor (SK-N-MC cells) (Homo sapiens, UniProt O60894+Q16602) for Cc1cc(CC(CC(=O)N2CCC(N3Cc4ccccc4NC3=O)CC2)C(=O)N2CC(C)OC(C)C2)cc2cn[nH]c12 (racemic) [Example 73]
10 to 100 nM
